Sourced from PubChem BioAssay

# Experiment notes: antimalarial activity against Dd2 strain (AID 2302);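 note: 0% = DMSO untreated growth and 100% = chloroquine plus artemisinin killed control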
# Details: P. falciparum Dd2 in RBCs, LDH growth readout, 72 h; at 2 µM
The source made the active and inactive calls.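 Rule for the calls: active = growth inhibition above 50% at the single 2 µM test dose, taken to imply half-maximal potency below 2 µM; inactive = the rest.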
Please reply with one of these outcomes: True for active, False for inactive

Example entries and their recorded answers appear below.
{"Molecule": "CCn1cc(CN2CCCC(C(=O)Nc3ccc(-c4nc5ccccc5[nH]4)cc3)C2)c(C)n1 (stereo not given)", "Label": "False"}
{"Molecule": "Cc1ccc(NC(=O)c2cccc(C#N)c2)cc1-c1ccc(C(=O)Nc2ccncc2)cc1", "Label": "True"}
{"Molecule": "COc1ccc2nccc([C@@H](O)CN3CCC(NCCOc4ccc(F)cc4F)CC3)c2c1", "Label": "True"}
{"Molecule": "O=C(/C=C/c1ccc(Cl)c(Cl)c1)N1CCC(CCN2CCC(c3c[nH]c4cc5c(cc34)OCO5)CC2)CC1", "Label": "True"}
{"Molecule": "N=c1sc2ccccc2n1CC(O)c1ccc(Cl)c(Cl)c1 (stereo not given)", "Label": "True"}
{"Molecule": "CCCCCCCCn1c2c(c(=N)c3c1CCC3)CCC2", "Label": "True"}
{"Molecule": "c1cncc(CCNCc2cccc(-c3ccc(-c4nc5ccccc5[nH]4)s3)c2)c1", "Label": "True"}
{"Molecule": "CCCC/C=C(\\Cl)c1ccc(O)c2c1C[C@H]1C[C@H]3[C@H](N(C)C)C(=O)C(C(N)=O)=C(O)[C@@]3(O)C(=O)C1=C2O", "Label": "True"}

GET /call?item= CC(=O)Nc1ccc(C(=O)NC2CCN(c3ccnc4cc(Cl)ccc34)CC2)cc1 returns the recorded outcome of this test. True

GET /call?item= O=S(=O)(Nc1cc2c(cc1O)CCNCC2)c1ccc(-c2ccc(Cl)cc2)cc1 returns the recorded outcome of this test. False

GET /call?item= O=C(NCCN1CCCc2ccccc21)C1CCN(c2nc(-c3ccc(Cl)cc3)no2)CC1 returns the recorded outcome of this test. True

GET /call?item= CSC1=NC(=Nc2c(C)cccc2C)C2(CCCCC2)N1c1ccccc1Cl returns the recorded outcome of this test. True

* * *

# Experiment notes: inhibition of 3D7 malaria parasite growth – strain 3D7 (AID 2306);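 note: 0% = DMSO wells and 100% = chloroquine plus artemisinin control wells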
# Details: P. falciparum 3D7 erythrocytic growth, LDH absorbance, 72 h; at 2 µM; hits give high values
Would you mind telling me the reported growth inhibition of each entry?
One number for each entry, in %.

Worked examples follow.
{"Compound": "COc1ccc2c(NN=Cc3ccccc3)cc(C)nc2c1", "Units symbol": "%", "growth inhibition": 100}
{"Compound": "NC1=NC(c2ccccc2)(c2ccccc2)C(=O)N1CC=Cc1ccccc1", "Units symbol": "%", "growth inhibition": 98}
{"Compound": "CCOc1ccc2c(NN=Cc3cccc(OC)c3)cc(C)nc2c1", "Units symbol": "%", "growth inhibition": 97}

Return reported growth inhibition values for all items listed beneath this line.
1. CCN(CC)CCN1C(=O)c2oc3ccc(F)cc3c(=O)c2C1c1cccc(Cl)c1 (stereo not given)
2. OC[C@H](Nc1nc(C(Oc2ccccc2)c2ccccc2)nc2[nH]ncc12)c1ccccc1 (stereo not given in full)
3. Cc1nnc2c(NC(=O)NC3CCCC3)cc3cc(-c4ccc(CN5CCCCC5)cc4)ccc3n12

1. 99
2. 98
3. 99

* * *

# Experiment notes: antimalarial activity against Dd2 strain (AID 2302);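 note: 0% = DMSO untreated growth and 100% = chloroquine plus artemisinin killed control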
# Details: P. falciparum Dd2 in RBCs, LDH growth readout, 72 h; at 2 µM; hits give high values
Would you mind telling me the reported growth inhibition of each entry?
Numbers only, in %.

Return reported growth inhibition values for all items listed beneath this line.
1. CCc1ccc(CN(Cc2ccc(C)cc2)Cc2ccc(NC(C)=O)cc2)cc1
2. c1ccc2c(CNCCCCCCNCc3c(OCC4CC4)ccc4ccccc34)c(OCC3CC3)ccc2c1
3. O=C(/C=C/c1ccc(Cl)c(Cl)c1)NCCCCCN1CCC(NC(=O)Nc2ccc(Cl)cc2Cl)CC1
4. CN1CCC(NCc2cccc(-c3cccc(S(=O)(=O)NCc4ccccc4)c3)c2)CC1

1. 79
2. 97
3. 33
4. 6
